- SYSTEM_NAME: T1, Vaccinia Virus, Western Reserve, L1R Protein with C-Terminal Histidine Tag (Vaccinia virus, strain Western Reserve, UniProt P07612)
- T1 construct: also called L1 antigen; recombinant L1 antigen; source: obtained through BEI Resources (NR-2625), recombinant from baculovirus
- RUN_DESCRIPTION: SPR; […] (10 µg/ml, […], dissociation 600 s; […]
- CONDITION_DESCRIPTION: both partners purified
READOUT: koff

binder="L1-H7 (VHH, llama sdAb of the L1-H7 family; also called sdAb L1-H7) VHH: EVQLQASGGGLVQAGGSLRLSCIASGRAFSTTNMGWFRQAPGKEREFVTRVNWSGGVTSYADSVKGRFTLSRDNTKNTVYLQMNSLKPEDTAVYYCAGSTVWSTDRAHYNYWGRGTQVTVSS" readout=koff observed_result="0.00087 s⁻¹"
binder="L1-E2 (VHH, llama sdAb, only member of the L1-E2 family; also called sdAb L1-E2) VHH: EVQLQASGGGLVQPGGSLRLSCAASGFSISSATMSWVRQAPGKGLEWVSTVQDGAGIISSADSAKARFTISRDSAKNTLYLQMNSLKPEDTAVYYCRTVVFGRILRGQGTQVTVSS" readout=koff observed_result="0.0045 s⁻¹"
binder="L1-G2 (VHH, llama sdAb of the L1-H7 family; also called sdAb L1-G2) VHH: EVQLQASGGGLVQAGGSLRLSCTASGRAFSTTNMGWFRQAPGKEREFVTRVNWSGGVTSYADSVKGRFTLSRDNTKNTVYLQMDSLKPEDTAVYYCAGSTVWSTDRKHYNYWGQGTQVTVSS" readout=koff observed_result="0.001 s⁻¹"
binder="L1-H2 (VHH, llama sdAb of the L1-H2 family; also called sdAb L1-H2) VHH: EVQLQASGGGLVQAGGSLRLSCAASGRTLSTGVMGWFRQLPGKEREFVARITWIAGSSLYADSVKGRFTISRDNTNNTVYLQMNALKPEDTAVYYCAANLAGNSWPYKTPMDYDSWGQGTQVTVSS" readout=koff observed_result="0.0021 s⁻¹"
binder="L1-E6 (VHH, llama sdAb of the L1-H7 family; also called sdAb L1-E6) VHH: EVQLQASGGGLVQAGGSLRLSCIASGRAFSTTNMGWFRQAPGKEREFVTRVNWSGGVTSYADPVKGRFTLSRDNTKNTVYLQMNSLKPEDTAVYYCAGSTVWSTDGAHYNYWGQGTQVTVSS" readout=koff observed_result="0.001 s⁻¹"
